Test system: biotinyl-Ile-oxazolone
method-notes: self-aminoacylation, catalytic enhancement (BIO) (fold over background); higher = more active; k-Seq, kA / k0A0; sequences stand for … in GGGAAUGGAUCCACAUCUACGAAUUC…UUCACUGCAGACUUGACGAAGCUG
Variants at the floor of the assay were thinned out.
outcome-measure: self-aminoacylation
No unit in the answer, only the number.

Input: What does the record list as self-aminoacylation for CUUCACCUAGGUCAUUGGGUG [Fam2.2 aminoacylation ribozyme variant] ?
Output: 1.98

Input: What does the record list as self-aminoacylation for AAGUUUGCGAAUAGUCGCAAA [Fam3.1 aminoacylation ribozyme variant] ?
Output: 2.03

Input: What does the record list as self-aminoacylation for CCAAACUUCUAGCAAUCGGUC [Fam1B.1 aminoacylation ribozyme variant] ?
Output: 0.961

Input: What does the record list as self-aminoacylation for AAGUUUGCUACUACUCGCAAG [Fam3.1 aminoacylation ribozyme variant] ?
Output: 0.565

Input: What does the record list as self-aminoacylation for AUUCACCUAGGCUAUCGGGUG [Fam2.2 aminoacylation ribozyme variant] ?
Output: 2.43

Input: What does the record list as self-aminoacylation for CCACACUUCUAGCAAUCGGUU [Fam1B.1 aminoacylation ribozyme variant] ?
Output: 1.34

Input: What does the record list as self-aminoacylation for AAGGUUGCUAAUAGUCGCAAA [Fam3.1 aminoacylation ribozyme variant] ?
Output: 1.86

Input: What does the record list as self-aminoacylation for AUUACCGUGGUCAUCGAGAGA [Fam2.1 aminoacylation ribozyme variant] ?
Output: 1.11

Input: What does the record list as self-aminoacylation for CUACUUCAAACCAGCGGUCUG [Fam1A.1 aminoacylation ribozyme variant] ?
Output: 0.921

Input: What does the record list as self-aminoacylation for CUACUUCAAACAGUCUGUCUG [Fam1A.1 aminoacylation ribozyme variant] ?
Output: 0.608

Input: What does the record list as self-aminoacylation for CUUACCCUGGUCAUCCAGUGA [Fam2.1 aminoacylation ribozyme variant] ?
Output: 2.37

###

System: biotinyl-Phe-oxazolone
method-notes: self-aminoacylation, catalytic enhancement (BFO) (fold over background); higher = more active; k-Seq, kA / k0A0; sequences stand for … in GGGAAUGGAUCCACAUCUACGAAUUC…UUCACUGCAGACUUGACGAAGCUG
This sample holds only a part of the variants without activity.
outcome-measure: self-aminoacylation

Worked examples follow.
AUUCACCUUGGUCAGCGGGUG [Fam2.2 aminoacylation ribozyme variant]: 25.6
AUUGACCUACGUCAUCGGGUG [Fam2.2 aminoacylation ribozyme variant]: 40.6

Input: Provide the documented self-aminoacylation with biotinyl-Phe-oxazolone as the system for CUACUUCAAUGAAUCGGUCUG [Fam1A.1 aminoacylation ribozyme variant]
Output: 7.24

Input: Provide the documented self-aminoacylation with biotinyl-Phe-oxazolone as the system for CUACUUAAAAAAAUCGGUCUG [Fam1A.1 aminoacylation ribozyme variant]
Output: 0.661

Input: Provide the documented self-aminoacylation with biotinyl-Phe-oxazolone as the system for AUUAACCUGGUCACCGAGUGA [Fam2.1 aminoacylation ribozyme variant]
Output: 40.8

Input: Provide the documented self-aminoacylation with biotinyl-Phe-oxazolone as the system for AUUACACUGGUUAUCGAGUGA [Fam2.1 aminoacylation ribozyme variant]
Output: 45.5

Input: Provide the documented self-aminoacylation with biotinyl-Phe-oxazolone as the system for CCACACUUAAAGCACUCGGUC [Fam1B.1 aminoacylation ribozyme variant]
Output: 0.788

Input: Provide the documented self-aminoacylation with biotinyl-Phe-oxazolone as the system for AAGUUUGCUACUACUCGCAAG [Fam3.1 aminoacylation ribozyme variant]
Output: 0.639

Input: Provide the documented self-aminoacylation with biotinyl-Phe-oxazolone as the system for CCACACCUCAAGGAAUCGGUC [Fam1B.1 aminoacylation ribozyme variant]
Output: 0.875

Input: Provide the documented self-aminoacylation with biotinyl-Phe-oxazolone as the system for AUACUUCAAACAAGCGGUCUG [Fam1A.1 aminoacylation ribozyme variant]
Output: 0.83

Input: Provide the documented self-aminoacylation with biotinyl-Phe-oxazolone as the system for CUACACUUCUAGCAAUCGGUC [Fam1B.1 aminoacylation ribozyme variant]
Output: 0.693

Input: Provide the documented self-aminoacylation with biotinyl-Phe-oxazolone as the system for CUACUUCAAACAUUCGGUCAG [Fam1A.1 aminoacylation ribozyme variant]
Output: 0.674

Input: Provide the documented self-aminoacylation with biotinyl-Phe-oxazolone as the system for AUUCACCUGGUUCAUCGGGUG [Fam2.2 aminoacylation ribozyme variant]
Output: 15.2

Input: Provide the documented self-aminoacylation with biotinyl-Phe-oxazolone as the system for GUUCACCUAGGUCUUCGGGUG [Fam2.2 aminoacylation ribozyme variant]
Output: 33.8
